# Lookup of reported EC50 keyed by entry
# Test target: UniProt P43220
# Sequence (P43220 24-463): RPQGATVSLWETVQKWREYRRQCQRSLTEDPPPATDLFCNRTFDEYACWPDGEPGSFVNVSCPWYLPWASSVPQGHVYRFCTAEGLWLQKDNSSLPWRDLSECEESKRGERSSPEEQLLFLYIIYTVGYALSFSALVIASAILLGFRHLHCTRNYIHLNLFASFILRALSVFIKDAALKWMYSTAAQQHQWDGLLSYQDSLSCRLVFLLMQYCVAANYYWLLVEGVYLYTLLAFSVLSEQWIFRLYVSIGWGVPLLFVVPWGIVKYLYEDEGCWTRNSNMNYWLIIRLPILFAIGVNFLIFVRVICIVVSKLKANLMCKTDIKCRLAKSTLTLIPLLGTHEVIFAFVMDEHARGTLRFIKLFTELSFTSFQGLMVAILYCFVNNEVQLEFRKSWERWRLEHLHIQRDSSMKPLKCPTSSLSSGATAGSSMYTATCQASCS
# Assay explanation: GLP-1R agonistic activity by One-Lite luciferase assay in HEK293-GLP-1R-luc cells (Example 59)
# Type: cell-based
# Experimental conditions: 6 h incubation, read-out: cAMP EC50

INSERT INTO assay_data (molecule, reported_measurement) VALUES
  ('Cc1cc(-n2nc3c(c2-n2ccn(-c4ccc5c(cnn5C)c4F)c2=O)[C@H](C)N(C(=O)c2cc4cc([C@H]5CCOC(C)(C)C5)ccc4n2[C@@]2(c4noc(=O)[nH]4)C[C@@H]2C)CC32CCC(O)CC2)cc(C)c1F (stereo partly shown)', '≤ 0.02 µM');

The recorded EC50 for entry Cc1cc(-n2nc3c(c2-n2ccn(-c4ccc5c(cnn5C)c4F)c2=O)[C@H](C)N(C(=O)c2cc4cc(C5CCOCC5)ccc4n2C2(c4noc(=O)[nH]4)CC2)CC32CC2)cc(C)c1F equals 0.1 to 0.3 µM

The recorded EC50 for entry Cc1cc(-n2nc3c(c2-n2ccn(-c4ccc5c(ccn5C)c4F)c2=O)[C@H](C)N(C(=O)c2cc4cc([C@H]5CCOC(C)(C)C5)ccc4n2[C@@]2(c4noc(=O)[nH]4)C[C@@H]2C)CC32CCCNC2)cc(C)c1F (single isomer, unassigned) [Compound 51-B] equals ≤ 0.02 µM

The recorded EC50 for entry Cc1cc(-n2nc3c(c2-n2ccn(-c4ccc5c(cnn5C)c4F)c2=O)[C@H](C)N(C(=O)c2cc4cc(C5CCOC(C)(C)C5)ccn4c2C2(c4noc(=O)[nH]4)CC2)CC32CC2)cc(C)c1F (single isomer, unassigned) [Compound 185-A] equals > 0.3 µM
